- assay.target: TLR8 (Homo sapiens)
- Sequence (Q9NR97 27-1041): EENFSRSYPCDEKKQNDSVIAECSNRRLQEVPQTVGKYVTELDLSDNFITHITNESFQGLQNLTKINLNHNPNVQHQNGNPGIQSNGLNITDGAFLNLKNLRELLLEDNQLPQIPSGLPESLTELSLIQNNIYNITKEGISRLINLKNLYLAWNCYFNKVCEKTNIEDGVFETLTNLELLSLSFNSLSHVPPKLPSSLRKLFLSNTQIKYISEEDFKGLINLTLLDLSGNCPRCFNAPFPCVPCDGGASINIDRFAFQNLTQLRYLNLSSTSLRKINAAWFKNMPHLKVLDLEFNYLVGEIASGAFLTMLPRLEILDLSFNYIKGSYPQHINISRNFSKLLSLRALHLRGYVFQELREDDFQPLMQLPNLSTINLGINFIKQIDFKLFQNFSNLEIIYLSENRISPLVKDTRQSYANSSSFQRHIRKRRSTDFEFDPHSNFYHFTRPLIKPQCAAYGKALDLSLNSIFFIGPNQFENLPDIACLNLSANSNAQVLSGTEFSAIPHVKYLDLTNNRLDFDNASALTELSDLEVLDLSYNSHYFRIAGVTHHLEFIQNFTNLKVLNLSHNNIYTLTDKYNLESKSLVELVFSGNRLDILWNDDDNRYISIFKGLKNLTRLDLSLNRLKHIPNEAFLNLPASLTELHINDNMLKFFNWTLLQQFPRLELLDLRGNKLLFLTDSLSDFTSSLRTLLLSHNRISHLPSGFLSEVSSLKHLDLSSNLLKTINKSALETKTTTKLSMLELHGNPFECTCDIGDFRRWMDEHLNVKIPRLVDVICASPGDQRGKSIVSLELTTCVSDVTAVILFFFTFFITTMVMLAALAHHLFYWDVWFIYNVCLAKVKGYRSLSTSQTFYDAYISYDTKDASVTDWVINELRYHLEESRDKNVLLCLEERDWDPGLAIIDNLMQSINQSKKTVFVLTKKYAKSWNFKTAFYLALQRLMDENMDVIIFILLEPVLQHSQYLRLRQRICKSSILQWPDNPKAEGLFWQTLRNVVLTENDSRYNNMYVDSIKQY
- method.summary: huPBMC TLR8 Antagonist IL-6 TR-FRET Assay
- Assay type: cell-based
- Parameters: Fresh blood was collected from normal human donors; endogenous in cells; host or cells: human PBMCs from fresh donor blood
- condition.parameters: human PBMCs stimulated with ssRNA40 1 μg/ml (DOTAP), 14-16 hrs; IL-6 TR-FRET read-out
# IC50 per entry
Give just the number in nM; leave the unit off.

CCNCC(=O)NC12CCC(Cn3nc(C)c4c3CCN(c3nc(C)nc5c(C)nn(C)c35)C4)(CC1)CC2 | 14

Prompt: Please give the measured IC50 for this compound: Cc1nn(CC23CCC(N)(CC2)CC3)c2c1CN(c1nc(Cl)nc3cnn(C)c13)CC2
Response: 203

Prompt: And then Cc1cc(N2CCc3c(c(C)nn3CC34CCC(N5C[C@@H](O)[C@@H](O)C5)(CC3)CC4)C2)c2cnn(C)c2n1 , what is it?
Response: 158

Prompt: And then Cc1cc(N2CCc3c(c(C)nn3CC34CCC(N)(CC3)CC4)C2)cc(-c2ccccc2)n1 , what is it?
Response: 983
